TARGET_OR_TEST_SYSTEM: human δ opioid receptor (human, UniProt P41143 1-372)
Sequence (P41143 whole entry, stated change not applied): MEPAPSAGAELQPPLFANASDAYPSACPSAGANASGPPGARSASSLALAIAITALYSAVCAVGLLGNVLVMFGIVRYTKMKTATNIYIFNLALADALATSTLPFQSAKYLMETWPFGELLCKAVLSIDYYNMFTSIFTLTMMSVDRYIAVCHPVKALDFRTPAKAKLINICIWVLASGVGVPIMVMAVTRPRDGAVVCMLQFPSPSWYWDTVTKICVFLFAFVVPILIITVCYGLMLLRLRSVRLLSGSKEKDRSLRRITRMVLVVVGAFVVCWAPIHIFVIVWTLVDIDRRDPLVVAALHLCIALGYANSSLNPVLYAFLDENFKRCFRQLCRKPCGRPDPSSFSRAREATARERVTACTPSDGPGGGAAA
MEASUREMENT_PROTOCOL: cell-based or functional assay
Square brackets hold non-standard residues; d marks the D form. Primed or numbered codes have the meaning given here. Ends that are not written are not given here. * marks the point of attachment. Glc = O-glucosyl on Ser side chain (Ser(OGlu)/Ser(OGlc)); NH(3,5-(CF3)2-benzyl) = FC(F)(F)c1cc(CN*)cc(C(F)(F)F)c1; Glc″ = glucosyl on the serine side-chain oxygen; Nle = CCCC[C@H](N)C(=O)O
OBSERVATION_TYPE: GTP binding Emax (%)
Answers are plain numbers, in %.

Y[dA]GF[Nle]S(Glc″)LW-{NH(3,5-(CF3)2-benzyl)} (also called TY044) [TyrDAlaGlyPheNleSer(OGlu)LeuTrpNHBn(CF3)2]
162
Y[dA]GF[Nle]PS(Glc)W-{NH(3,5-(CF3)2-benzyl)} (also called TY041) [TyrDAlaGlyPheNleProSer(OGlu)TrpNHBn(CF3)2]
62
YAGFXPLW (D-Ala at 2; Nle at 5 (written X); C-terminal NH-3,5-Bzl(CF3)2 amide, also called TY045) [TyrDAlaGlyPheNleProLeuTrpNHBn(CF3)2]
125

Data request, read-out GTP binding Emax, for Y[dA]GFS(Glc)PLW-{NH(3,5-(CF3)2-benzyl)} (also called TY042) [TyrDAlaGlyPheSer(OGlu)ProLeuTrpNHBn(CF3)2]
47
